Biological target: T1, His-Strep-Mad1 597–718 (human, UniProt Q9Y6D9 597-718)
T1 construct: composition confirmed by multi-angle light scattering; also called Mad1 C-terminal fragment; source: E. coli BL21(DE3), purified (HiTrap Ni column, Superdex 75)
T1 sequence (looked up): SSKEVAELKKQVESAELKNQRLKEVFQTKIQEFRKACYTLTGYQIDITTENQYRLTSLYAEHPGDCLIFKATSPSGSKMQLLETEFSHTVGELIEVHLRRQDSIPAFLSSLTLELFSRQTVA
Assay: SPR; N-terminally biotinylated Bub1 peptides captured (~50 RU) on a streptavidin-coated CM5 chip, Mad1 proteins injected; Biacore T200, 25 °C; 25 mM Tris pH 7.8, 150 mM NaCl, 10 mM MgCl2, 0.25 M TCEP, 0.005% Surfactant P-20; steady-state affinity model
Conditions: both partners purified
Square brackets hold non-standard residues; d marks the D form. Ends that are not written are not given here. * marks the point of attachment. Biotin = O=C1N[C@H]2[C@H](CS[C@H]2CCCCC(=O)*)N1; pT = C[C@@H](OP(=O)(O)O)[C@H](N)C(=O)O; pS = N[C@@H](COP(=O)(O)O)C(=O)O; Nle = CCCC[C@H](N)C(=O)O
assayReadout: Kd (µM)
Provide the reading as a plain figure in µM.

Previously resolved entries follow.
binder	unitTag	Kd
Biotin-VQATPSKVQPSPTVHTKEALGFI[Nle]N[Nle]FQAPTL (peptide, UniProt O43683 449-480, looked up, Bub1, human, residues 449–480 (CD1 and surrounding residues); also called WT; unphosphorylated CD1 peptide; source: synthetic peptide, bought: Biosyntan Gmbh) [biotinylated CD1 peptide (residues 449–480), unphosphorylated]	µM	304
Biotin-VQATPSKVQP[pS]P[pT]VHTKEALGFI[Nle]N[Nle]FQAPTL (peptide, UniProt O43683 449-480, looked up, Bub1, human, residues 449–480; also called pS459/pT461; source: synthetic peptide, bought: Biosyntan Gmbh) [CD1 peptide phosphorylated on Ser459 and Thr461]	µM	16

For reference, reported Kd for Biotin-VQATPSKVQPSP[pT]VHTKEALGFI[Nle]N[Nle]FQAPTL (peptide, UniProt O43683 449-480, looked up, Bub1, human, residues 449–480; also called pT461; Bub1 pT461 peptide; source: synthetic peptide, bought: Biosyntan Gmbh) [CD1 peptide phosphorylated on Thr461] stands at 32
